The measurements presented in this section are drawn from the pKa sets of Baltruschat and Czodrowski (2020).

Conditions: basic group
Is pKa at least 7? Then Satisfied. If not, Not satisfied.

Record excerpt, results attached:
[[record]]
compound = "CCC(C)NC(C)C (stereo not drawn)"
answer_label = "Satisfied"

[[record]]
compound = "CC(N)CCc1ccccc1 (stereo not drawn)"
answer_label = "Satisfied"

[[record]]
compound = "Cc1ccc2c(c1)c1c3c(nccn32)CCC1"
answer_label = "Not satisfied"

[[record]]
compound = "O=[N+]([O-])c1ccc2[nH]c(C(F)(F)F)nc2c1"
answer_label = "Not satisfied"


-- ask Quick check: does `OCCNC1CC[NH+](Cc2ccccc2)CC1` have pKa greater than or equal to 7?
-- reply Not satisfied

-- ask Note, next up: Cc1ccc2c(c1)C(CC[NH3+])CN2 (stereo not drawn)
-- reply Not satisfied

###

Conditions: basic group
Definition: the class of an entry is the range in bottom end (below 4), midrange (4 to below 8), top end (8 or more) that contains its pKa.

[[record]]
molecule = "CN(C)N"
answer_label = "midrange"


-- ask Assign a bin to `CCOCCn1c(N2CCC[NH+](CCCCn3cccn3)CC2)nc2ccccc21`
-- reply midrange

-- ask Note, next up: NC(Cc1ccncc1)C(=O)[O-] (configuration not stated)
-- reply top end

-- ask Note, next up: `c1ccc(Nc2ccccc2)cc1`
-- reply bottom end

-- ask Note, next up: `NCC[NH2+]CCc1ccccc1`
-- reply midrange

-- ask Note, next up: `C=CC(=O)NC(C)(C)CCN(CC)CC`
-- reply top end

-- ask Note, next up: `N[C@H]1CCC[C@H](O)C1`
-- reply top end

###

Conditions: acidic group
Endpoint Name: pKa
Answers are plain numbers.

Example results:
[[record]]
molecule = "CCc1nsc(O)n1"
measured_number = 6.89

[[record]]
molecule = "CC[NH+]1CCC[C@@H]1CNC(=O)c1c(OC)ccc([N+](=O)[O-])c1O"
measured_number = 5.75

[[record]]
molecule = "O=NCC(=O)c1ccncc1"
measured_number = 7.8

[[record]]
molecule = "O=C1/C(=N/O)C=Cc2ccccc21"
measured_number = 7.52

[[record]]
molecule = "Oc1cccc2cccnc12"
measured_number = 9.77


Provide each entry's pKa from the list below.
1. CC(C)C[NH2+]CC(=O)O
2. NS(=O)(=O)c1ccsc1C(=O)O
3. O=C1COCC(=O)C1=O

-- reply
[2.35, 3.3, 7.62]

###

Conditions: acidic group
Is pKa at least 10? Then Met. If not, Not met.

Record excerpt, results attached:
[[record]]
molecule = "Cc1cccc(O)c1C(=O)O"
answer_label = "Not met"

[[record]]
molecule = "Oc1ccccc1CN1CCOCC1"
answer_label = "Met"


-- ask Quick check: does [NH3+]C(CC(=O)O)c1cccc[nH+]1 (stereo not drawn) have pKa greater than or equal to 10?
-- reply Not met

-- ask Note, next up: `C[N+](C)(C)[CH2][Sn]([CH3])([CH3])[CH3]`
-- reply Met

-- ask Note, next up: `CN1CC[C@]23c4c5ccc(O)c4O[C@H]2[C@@H](O)C=C[C@H]3[C@H]1[C@H]5O`
-- reply Not met

-- ask Note, next up: `Cn1nc(/N=N/O)nc1N1CCCCC1`
-- reply Not met

-- ask Note, next up: `CCCc1c(C)nn(-c2ccccc2)c1O`
-- reply Met

-- ask Note, next up: `O=C([O-])[C@@H](NCC[NH2+][C@@H](C(=O)[O-])c1ccccc1O)c1ccccc1O`
-- reply Not met

-- ask Note, next up: `CC(=O)c1ccc(NS(=O)(=O)c2ccccc2)cc1`
-- reply Not met

-- ask Note, next up: `CN1CCC(=O)NC1=O`
-- reply Met

###

Conditions: basic group
Endpoint Name: pKa
Answers are plain numbers.

Example results:
[[record]]
record_smiles = "CCSCCN"
endpoint_name = "pKa"
measured_number = 9.48

[[record]]
record_smiles = "Nc1ccc(/C=C/c2cc(N)c3ccccc3n2)cc1"
endpoint_name = "pKa"
measured_number = 9.5

[[record]]
record_smiles = "FC(F)(F)c1cc(-c2ccccc2)nnc1NCCN1CCOCC1"
endpoint_name = "pKa"
measured_number = 6.75

[[record]]
record_smiles = "N=C(c1ccccc1)c1ccccc1Cl"
endpoint_name = "pKa"
measured_number = 5.59

[[record]]
record_smiles = "CN1CCC1"
endpoint_name = "pKa"
measured_number = 10.4

[[record]]
record_smiles = "CN(C)CCC#N"
endpoint_name = "pKa"
measured_number = 7.01

[[record]]
record_smiles = "CN(C)c1ccc([N+](=O)[O-])c2c(NCCC[NH+](C)C)c3ccccc3nc12"
endpoint_name = "pKa"
measured_number = 6.47


Now take the following compound into account.
-- ask Looking for the measured pKa of `C=C(C)C(=O)OCCNC` , can you help?
-- reply 8.96

###

Conditions: acidic group
Endpoint Name: pKa
Answers are plain numbers.

Provide each entry's pKa from the list below.
1. C[NH+](C)CCCCCNC(=O)/C=N/O
2. N#CC(C#N)=NNc1ccccc1[N+](=O)[O-]
3. CCOC(=O)CC(C)=O
4. CCSC(C)O (stereo unspecified)
5. Oc1ccc2cc3ccccc3cc2c1
6. Cc1c(C(=O)O)[nH]c2ccccc12

-- reply
[8.88, 5.8, 10.7, 14.3, 9.92, 4.33]

Provide each entry's pKa from the list below.
1. Cc1ccc([Se]O)c([N+](=O)[O-])c1
2. OC(CS)CS
3. O=C(O)c1ccc[nH+]c1[O-]
4. COC(=O)CCS
5. CC1(C)S[C@H]2[C@@H](NC(=O)Cc3ccc(O)cc3)C(=O)N2[C@@H]1C(=O)O

-- reply
[10.7, 9.17, 5.28, 9.33, 2.62]

Provide each entry's pKa from the list below.
1. Cn1nnnc1CC(=O)O
2. O=C(O)C(=O)c1ccccc1
3. Cc1cc(N)c2ccccc2c1O
4. CCC1C(=O)C(CC)C1=O (stereo unspecified)

-- reply
1: 2.83; 2: 1.22; 3: 10.1; 4: 3.5

###

Give measured pKa for each item. Keep answers brief.
Conditions: acidic group
Answers are plain numbers.

Example results:
[[record]]
compound = "O=c1c2[nH]cnc2ncn1O"
measured_number = 5.66

[[record]]
compound = "Cn1n[n+](C)nc1N"
measured_number = 2.5

[[record]]
compound = "O=[N+]([O-])c1ccc(S(=O)(=O)Nc2ccccc2)cc1"
measured_number = 7.41

[[record]]
compound = "C=CCC1(CC=C)SC(=O)NC1=O"
measured_number = 6.1

[[record]]
compound = "Oc1ccc2nnccc2c1"
measured_number = 7.52


Provide each entry's pKa from the list below.
1. C[N+](C)(C)c1cccc(O)c1
2. CC(=O)NBr
3. CNC(=N)CCNS(=O)(=O)c1ccc(C)cc1

-- reply
1: 8.07; 2: 8.1; 3: 11.9

###

Conditions: acidic group
Endpoint Name: pKa
Numbers only.

Example results:
[[record]]
compound = "CC(I)C(=O)O (stereo unspecified)"
measured_number = 3.21

[[record]]
compound = "C[n+]1ccc2ccccc2c1S"
measured_number = -2.13

[[record]]
compound = "COc1c(C(=O)O)oc2ccccc12"
measured_number = 3.7

[[record]]
compound = "c1ccc(-c2nn[nH]n2)cc1"
measured_number = 4.53

[[record]]
compound = "O=C(O)C1(O)CCC1"
measured_number = 3.88

[[record]]
compound = "O=C1CSc2ncnc(N3CCOCC3)c2N1"
measured_number = 10.4


Provide each entry's pKa from the list below.
1. Nc1nc(N)c2[nH]c(N)nc2n1
2. O=P1(O)CCCC1
3. O=C(O)[C@H](O)c1ccc([N+](=O)[O-])cc1
4. CC(C)(C)c1cc([N+](=O)[O-])cc(C(C)(C)C)c1O
5. O=C(O)c1cccc(Oc2ccccc2)c1
6. C[Si](C)(CCCCl)CCCC(=O)O

-- reply
1. 10.8
2. 2.51
3. 2.99
4. 6.92
5. 3.95
6. 4.98

Provide each entry's pKa from the list below.
1. O=[N+]([O-])c1ccccc1O
2. O=[N+]([O-])c1cc(O)ccc1[O-]
3. Cc1cccc(C(=O)O)c1C
4. O=S(=O)([O-])c1cc(O)c2cn[nH]c2c1

-- reply
7.15
10.1
3.73
8.1

Provide each entry's pKa from the list below.
1. Cc1nn(-c2ccccc2)c(O)c1-c1ccccc1
2. O=C(O)CC[C@@H]1NC(=O)CNC1=O
3. C[C@H]1CC[C@H](C(=O)O)CC1
4. C/C(=N/O)c1ccc([O-])cc1O
5. [O-]c1ccccc1/C=N/O
6. O=[N+]([O-])c1cccc(/C=N/O)c1
7. COc1csc(C(=O)O)c1

-- reply
[11.9, 4.36, 4.89, 9.72, 12.1, 10.2, 3.41]

Provide each entry's pKa from the list below.
1. Cc1ccc(Sc2ccc([N+](=O)[O-])cc2C(=O)O)cc1
2. Cc1cc(O)cc([N+](C)(C)C)c1
3. [NH3+]CC#CC#CCCC(=O)O
4. O=CO
5. O=C(O)[C@@H]1CC[C@@H](C(=O)O)[Se][Se]1
6. O=C([O-])CNC(=O)c1cccc(O)c1O

-- reply
1. 2.84
2. 8.2
3. 4.05
4. 3.69
5. 2.85
6. 7.7

Provide each entry's pKa from the list below.
1. C[n+]1c2ccccc2cc2ccc(N)cc21
2. OC(c1ccncc1)(c1ccncc1)c1ccccn1

-- reply
[11.8, 12.4]
